# credit: ChEMBL document CHEMBL2424615

Tested on: Staphylococcus aureus
Assay: Antibacterial activity against wild type Staphylococcus aureus ATCC 29213 assessed as growth inhibition by broth microdilution method
Assay type: functional
# MIC values compiled below
Give the value, in units of µg/mL, as a plain number.

[[record]]
smiles_string = "COc1ccc2nccc([C@@H](O)[C@H](O)[C@H]3CC[C@H](NCc4ccc5c(n4)NC(=O)CS5)CO3)c2n1"
unit_of_measure = "µg/mL"
observed_value = 0.5

[[record]]
smiles_string = "COc1ccc2nccc(NC(=O)[C@H]3CC[C@H](NCc4ccc5c(n4)NC(=O)CS5)CC3)c2n1"
unit_of_measure = "µg/mL"
observed_value = 0.015


Task: // returns reported MIC for input COc1ccc2nccc([C@H](O)[C@@H](O)[C@H]3CC[C@H](NCc4ccc5c(n4)NC(=O)CS5)CO3)c2n1
Output: 0.03

Task: // returns reported MIC for input COc1ccc2nccc([C@@H](O)[C@H](O)[C@@H]3CC[C@@H](NCc4ccc5c(n4)NC(=O)CS5)CO3)c2n1
Output: 0.03
